Data origin: PubChem BioAssay (NCATS)

- System: CP266
- Test Description: qHTS profiling for inhibitors of Plasmodium falciparum proliferation (AID 504749); further: nearly all actives have a fitted effect of over 60% in size
- Experimental Parameters: P. falciparum in erythrocytes, SYBR Green DNA, 72 h; series mostly up to 28.7 µM
Results filed as inconclusive are left out. Activity calls are given as the source filed them. The call rests on the fitted dose curve; in most records, active means well fitted inhibition curve with a large enough effect; inconclusive means small, poorly fitted or top-dose-only effect; inactive means flat fitted curve, though single readings scatter.
API: response.call in 1.0 (active), 0.0 (inactive)

Sample answers from the record:
[Q] Which outcome did this test record for the compound CC(N=C(NC#N)Nc1ccncc1)C(C)(C)C (stereo not given) ?
[A] 0.0

[Q] Which outcome did this test record for the compound CSc1ccc(C(=O)c2[nH]c(=O)[nH]c2C)cc1 ?
[A] 0.0

[Q] Which outcome did this test record for the compound CCn1cc(C(=O)O)c(=O)c2cc3c(cc21)OCO3 ?
[A] 0.0

[Q] Which outcome did this test record for the compound C[C@H](CS)C(=O)N1CCC[C@H]1C(=O)O ?
[A] 0.0

[Q] Which outcome did this test record for the compound CC(=O)Nc1nnc(S(N)(=O)=O)s1 ?
[A] 0.0

[Q] Which outcome did this test record for the compound O=C1CC2(CCCC2)CC(=O)N1CCCCN1CCN(c2ncccn2)CC1 ?
[A] 0.0

More entries:
[Q] Which outcome did this test record for the compound CC[N+](C)(C)c1cccc(O)c1 ?
[A] 0.0

[Q] Which outcome did this test record for the compound CCN1CCc2nc(N)oc2CC1 ?
[A] 0.0

[Q] Which outcome did this test record for the compound OCCN1CCN(CCCN2c3ccccc3C=Cc3ccccc32)CC1 ?
[A] 1.0

[Q] Which outcome did this test record for the compound NC(N)=NC(=O)Cc1c(Cl)cccc1Cl ?
[A] 0.0

[Q] Which outcome did this test record for the compound CC1=NS(=O)(=O)c2cc(Cl)ccc2N1 ?
[A] 0.0

[Q] Which outcome did this test record for the compound CCN(CC)CC(=O)Nc1c(C)cccc1C ?
[A] 0.0

[Q] Which outcome did this test record for the compound CCCN(CCC)CCc1cccc2c1CC(=O)N2 ?
[A] 0.0

[Q] Which outcome did this test record for the compound CN(C)CCCN1c2ccccc2Sc2ccccc21 ?
[A] 0.0

[Q] Which outcome did this test record for the compound CC(C)COCC(CN(Cc1ccccc1)c1ccccc1)N1CCCC1 (stereo not given) ?
[A] 0.0
